# target entity: FSHR (Homo sapiens)
# Construct: expressed in transfected cells; host or cells: CHO (Cho-FSHR-LUC-1-1-43)
# Sequence (P23945 18-695): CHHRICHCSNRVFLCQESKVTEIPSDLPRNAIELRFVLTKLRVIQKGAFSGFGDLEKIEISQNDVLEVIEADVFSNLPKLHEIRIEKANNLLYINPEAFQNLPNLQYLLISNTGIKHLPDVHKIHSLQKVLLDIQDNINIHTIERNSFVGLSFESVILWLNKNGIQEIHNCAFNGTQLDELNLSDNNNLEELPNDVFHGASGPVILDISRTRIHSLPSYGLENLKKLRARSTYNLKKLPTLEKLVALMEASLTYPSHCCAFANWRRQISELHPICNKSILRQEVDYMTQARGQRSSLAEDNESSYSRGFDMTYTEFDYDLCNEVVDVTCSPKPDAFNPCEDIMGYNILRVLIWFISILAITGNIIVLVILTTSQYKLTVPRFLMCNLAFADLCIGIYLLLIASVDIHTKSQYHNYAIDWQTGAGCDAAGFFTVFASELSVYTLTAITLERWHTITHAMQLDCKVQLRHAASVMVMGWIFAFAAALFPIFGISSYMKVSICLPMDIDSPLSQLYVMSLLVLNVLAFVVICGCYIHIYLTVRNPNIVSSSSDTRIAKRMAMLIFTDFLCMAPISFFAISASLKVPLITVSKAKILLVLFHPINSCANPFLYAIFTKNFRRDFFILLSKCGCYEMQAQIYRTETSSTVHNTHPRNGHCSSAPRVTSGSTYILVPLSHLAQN
# assay comment: EC50 of cyclic AMP production in CHO FSHR cells + EC20 FSH (Assay A)
# Type: cell-based
# particulars: CHO FSHR cells + EC20 FSH, cAMP HTRF; read-out: Assay A: EC50 of cyclic AMP production
pEC50: −log10 of the molar value.
measurement name: pEC50

Recorded result, [2H]C([2H])([2H])N(CCCN(C(=O)c1nn(-c2ccsc2)c2c1COc1cc(OC)c(CC(C)C)cc1-2)C([2H])([2H])[2H])C(C)=O , pEC50: < 5.30

Recorded result, CCn1cc(-c2cc3c(cc2OC)OCc2c(C(=O)N4CCOCC4(C)C)nn(-c4ccsc4)c2-3)cn1 , pEC50: > 7.00

Recorded result, COc1cc2c(cc1-c1ccn(C)n1)-c1c(c(C(=O)N3CCN(C)CC3(C)C)nn1-c1ccsc1)CO2 , pEC50: > 7.00

Recorded result, COc1cc2c(cc1OC(C)C)-c1c(c(C(=O)NCCCNC(=O)C3CCC3)nn1-c1ccsc1)CO2 , pEC50: < 5.30

Recorded result, COc1cc2c(cc1-c1cncnc1)-c1c(c(C(=O)N(C)C(C)(C)C)nn1-c1ccsc1)CO2 , pEC50: > 7.00

Recorded result, COc1cc2c(cc1OC(C)C)-c1c(c(C(=O)N(C)CCCN(C)C(=O)C3CCC3)nn1-c1ccsc1)CO2 , pEC50: 6.00 to 7.00
